Please respond with reported Analgaesia cTFL (composite tail flick latency) for every item in the list.
system: rats; experiment: Tail flick analgaesic assessment (composite tail flick latency, cTFL); type: in vivo; conditions: rat, 20 mg/kg i.v. infused over 10 min; AUC of %MPE-time curve 0-60 min; measure of analgaesic magnitude/duration
Kindly provide the numeric value in s only, without the unit symbol.

### Prompt Param item = COc1ccccc1C1(NCCC(=O)OC(C)C)CCCCC1=O (stereo not shown) ; retrieve measured Analgaesia cTFL (composite tail flick latency).
### Response 313

### Prompt Param item = CC(C)OC(=O)CCNC1(c2cccc(C(F)(F)F)c2)CCCCC1=O (stereo not shown) [13a] ; retrieve measured Analgaesia cTFL (composite tail flick latency).
### Response 208

### Prompt Param item = COC(=O)CCCCNC1(c2ccc(C(F)(F)F)cc2)CCCCC1=O (stereo not shown) [18b] ; retrieve measured Analgaesia cTFL (composite tail flick latency).
### Response 37

### Prompt Param item = COC(=O)CCCCNC1(c2ccc(Cl)cc2)CCCCC1=O (stereo not shown) [15b] ; retrieve measured Analgaesia cTFL (composite tail flick latency).
### Response 576

### Prompt Param item = COC(=O)CCCCNC1(c2cccs2)CCCCC1=O (stereo not shown) [20b] ; retrieve measured Analgaesia cTFL (composite tail flick latency).
### Response 196

### Prompt Param item = COC(=O)CCCCNC1(c2ccccc2)CCCCC1=O (stereo not shown) ; retrieve measured Analgaesia cTFL (composite tail flick latency).
### Response 0

### Prompt Param item = CC(C)OC(=O)CCNC1(c2ccccc2F)CCCCC1=O (stereo not shown) ; retrieve measured Analgaesia cTFL (composite tail flick latency).
### Response 1297

### Prompt Param item = COC(=O)CCCCNC1(c2ccc(OC(F)(F)F)cc2)CCCCC1=O (stereo not shown) [19b] ; retrieve measured Analgaesia cTFL (composite tail flick latency).
### Response 194

### Prompt Param item = COC(=O)CCCCNC1(c2cccc(OC(F)(F)F)c2)CCCCC1=O (stereo not shown) [14b] ; retrieve measured Analgaesia cTFL (composite tail flick latency).
### Response 444

### Prompt Param item = Cc1ccccc1C1(NCCC(=O)OC(C)C)CCCCC1=O (stereo not shown) ; retrieve measured Analgaesia cTFL (composite tail flick latency).
### Response 393

### Prompt Param item = CC(C)OC(=O)CCNC1(c2cccc(Cl)c2)CCCCC1=O (stereo not shown) [10a] ; retrieve measured Analgaesia cTFL (composite tail flick latency).
### Response 332

### Prompt Param item = COC(=O)CCCCNC1(c2cccc(OC)c2)CCCCC1=O (stereo not shown) [12b] ; retrieve measured Analgaesia cTFL (composite tail flick latency).
### Response 210

### Prompt Param item = COC(=O)CCCCNC1(c2cccc(Cl)c2)CCCCC1=O (stereo not shown) [10b] ; retrieve measured Analgaesia cTFL (composite tail flick latency).
### Response 54

### Prompt Param item = CC(C)OC(=O)CCNC1(c2ccc(OC(F)(F)F)cc2)CCCCC1=O (stereo not shown) [19a] ; retrieve measured Analgaesia cTFL (composite tail flick latency).
### Response 166

### Prompt Param item = COC(=O)CCCCNC1(c2ccccc2F)CCCCC1=O (stereo not shown) ; retrieve measured Analgaesia cTFL (composite tail flick latency).
### Response 11

### Prompt Param item = COC(=O)CCCCNC1(c2ccccc2OC)CCCCC1=O (stereo not shown) ; retrieve measured Analgaesia cTFL (composite tail flick latency).
### Response 2332

* * *

Please respond with reported Behavioural dysfunction Score (SEM): severity on recovery for every item in the list.
System: rats
Experiment: Behavioural dysfunction scoring during recovery from infusion
Assay type: in vivo
Details: rat, during wake-up; sum score 0 (no effect) to 4 (severe dysfunction); mean (SEM)
Method: The compounds were evaluated for their ability to anaesthetise rats when administered by continuous intravenous infusion, as reported previously. […] During recovery the rats were monitored for multiple signs of behavioural dysfunction (see biology section for details) and the sum of these scores (from 0 to 4, with 0 being no effect and 4 being severe dysfunction) is given in Table 2. […]

### Prompt Param item = COC(=O)CCCCNC1(c2cccc(C(F)(F)F)c2)CCCCC1=O (centres unmarked) [13b] ; retrieve measured Behavioural dysfunction Score (SEM): severity on recovery.
### Response 0 (0)

### Prompt Param item = COC(=O)CCCCNC1(c2ccc(Cl)cc2)CCCCC1=O (centres unmarked) [15b] ; retrieve measured Behavioural dysfunction Score (SEM): severity on recovery.
### Response 3 (1)

### Prompt Param item = COc1cccc(C2(NCCC(=O)OC(C)C)CCCCC2=O)c1 (centres unmarked) [12a] ; retrieve measured Behavioural dysfunction Score (SEM): severity on recovery.
### Response 2 (0)

### Prompt Param item = COC(=O)CCCCNC1(c2ccc(OC)cc2)CCCCC1=O (centres unmarked) [17b] ; retrieve measured Behavioural dysfunction Score (SEM): severity on recovery.
### Response 3 (0)

### Prompt Param item = Cc1ccccc1C1(NCCC(=O)OC(C)C)CCCCC1=O (centres unmarked) ; retrieve measured Behavioural dysfunction Score (SEM): severity on recovery.
### Response 0 (0)

### Prompt Param item = CC(C)OC(=O)CCNC1(c2cccs2)CCCCC1=O (centres unmarked) [20a] ; retrieve measured Behavioural dysfunction Score (SEM): severity on recovery.
### Response 1 (1)

### Prompt Param item = COC(=O)CCCCNC1(c2cccc(Cl)c2)CCCCC1=O (centres unmarked) [10b] ; retrieve measured Behavioural dysfunction Score (SEM): severity on recovery.
### Response 3 (1)

### Prompt Param item = CC(C)OC(=O)CCNC1(c2ccccc2OC(F)(F)F)CCCCC1=O (centres unmarked) ; retrieve measured Behavioural dysfunction Score (SEM): severity on recovery.
### Response 1 (0)

### Prompt Param item = CC(C)OC(=O)CCNC1(c2ccccc2C(F)(F)F)CCCCC1=O (centres unmarked) ; retrieve measured Behavioural dysfunction Score (SEM): severity on recovery.
### Response 2 (1)

### Prompt Param item = COC(=O)CCCCNC1(c2ccc(OC(F)(F)F)cc2)CCCCC1=O (centres unmarked) [19b] ; retrieve measured Behavioural dysfunction Score (SEM): severity on recovery.
### Response 0 (0)

### Prompt Param item = CC(C)OC(=O)CCNC1(c2ccccc2Cl)CCCCC1=O (centres unmarked) ; retrieve measured Behavioural dysfunction Score (SEM): severity on recovery.
### Response 2 (1)

### Prompt Param item = COC(=O)CCCCNC1(c2cccc(OC)c2)CCCCC1=O (centres unmarked) [12b] ; retrieve measured Behavioural dysfunction Score (SEM): severity on recovery.
### Response 3 (1.4)

### Prompt Param item = COC(=O)CCCCNC1(c2ccc(C)cc2)CCCCC1=O (centres unmarked) [16b] ; retrieve measured Behavioural dysfunction Score (SEM): severity on recovery.
### Response 1 (0)

### Prompt Param item = CC(C)OC(=O)CCNC1(c2ccccc2)CCCCC1=O (centres unmarked) ; retrieve measured Behavioural dysfunction Score (SEM): severity on recovery.
### Response 0.5 (0.7)

### Prompt Param item = CC(C)OC(=O)CCNC1(c2ccccc2F)CCCCC1=O (centres unmarked) ; retrieve measured Behavioural dysfunction Score (SEM): severity on recovery.
### Response 1 (0)

### Prompt Param item = COC(=O)CCCCNC1(c2cccc(OC(F)(F)F)c2)CCCCC1=O (centres unmarked) [14b] ; retrieve measured Behavioural dysfunction Score (SEM): severity on recovery.
### Response 0 (0)

### Prompt Param item = COC(=O)CCCCNC1(c2ccccc2C)CCCCC1=O (centres unmarked) ; retrieve measured Behavioural dysfunction Score (SEM): severity on recovery.
### Response 1 (0)
